test system: Alpha-2A adrenergic receptor (Rattus norvegicus, UniProt P22909)
Sequence (P22909 whole entry): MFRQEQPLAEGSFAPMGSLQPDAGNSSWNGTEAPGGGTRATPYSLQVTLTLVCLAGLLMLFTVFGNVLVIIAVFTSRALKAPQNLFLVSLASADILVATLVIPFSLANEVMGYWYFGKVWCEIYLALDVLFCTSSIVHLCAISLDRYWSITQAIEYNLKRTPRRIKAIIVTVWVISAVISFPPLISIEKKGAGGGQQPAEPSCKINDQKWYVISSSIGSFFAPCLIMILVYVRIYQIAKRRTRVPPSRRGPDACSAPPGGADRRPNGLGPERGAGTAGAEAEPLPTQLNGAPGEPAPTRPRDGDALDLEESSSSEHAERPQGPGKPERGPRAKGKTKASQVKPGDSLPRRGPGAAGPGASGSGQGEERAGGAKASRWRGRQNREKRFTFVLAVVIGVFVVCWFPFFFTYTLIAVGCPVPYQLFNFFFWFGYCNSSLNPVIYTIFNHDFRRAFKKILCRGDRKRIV
assay remarks: Binding affinity for rat cortex alpha-2 adrenergic receptor was determined using [3H]-RX 81002 binding
readout kind: Ki (nM)
Numbers only, in nM.

Look up and report measured Ki for this entry: `COc1ccccc1N1CCN(CCCCNC(=O)c2cc3ccccc3cn2)CC1`
76

====

test system: Alpha-2A adrenergic receptor (Rattus norvegicus, UniProt P22909)
assay remarks: Binding affinity for rat cortex Alpha-2 adrenergic receptor was determined using [3H]-RX 81002 binding
pKi: −log10 of the molar value.
Lab note: compare pKi against 7. Equal or greater, write y. Smaller, write n.

O=C(NCCCCN1CCN(c2ccc(Cl)cc2Cl)CC1)c1cc2ccccc2cn1 ... n
COc1ccccc1N1CCN(CCCCNC(=O)c2cc3ccccc3o2)CC1 ... y
O=C(NCCCCN1CCN(c2ccc(Cl)cc2Cl)CC1)c1cc2ccccc2o1 ... n
O=C(NCCCCN1CCN(c2ccc(Cl)cc2Cl)CC1)c1cc2cc(Cl)ccc2[nH]1 ... n

Please turn your attention to the following entry.
Hi, just wondering whether `O=C(NCCCCN1CCN(c2ccc(Cl)cc2Cl)CC1)c1cc2ccccc2[nH]1` shows pKi of 7 or higher.
n
